Test system: BA/F3 (insSVD) cells
experiment summary: Ba/F3-EGFR-insSVD cell survival assay (Cell Titer-Glo)
Assay type: cell-based
condition info: Mus musculus, BaF3, 48 h, Table 3a, cell survival, Cell Titer-Glo, with 10 ng/ml EGF, without IL-3
pIC50 for assorted compounds
// pIC50: -log10(molar conc.)

Example compounds with recorded pIC50:
INSERT INTO measurements (compound, metric_name, observed_measurement) VALUES
  ('C=CC(=O)N1CCn2nc(-c3ccc(F)cc3)c(-c3ccncc3)c2C1', 'pIC50', 7.46),
  ('CN(C)C/C=C/C(=O)N1CCn2nc(-c3ccc(F)cc3)c(-c3ccncc3)c2C1', 'pIC50', 7.06),
  ('Cc1c[nH]c2nccc(-c3c(-c4ccc(C(F)(F)F)cc4)nn4c3CN(C(=O)/C=C/CN(C)C)CC4)c12', 'pIC50', 6.86),
  ('C=CC(=O)N1CCn2nc(-c3ccc(C(F)F)cc3)c(-c3ccncc3)c2C1', 'pIC50', 7.21),
  ('O=C(/C=C/CN1CCOCC1)N1CCn2nc(-c3ccc(Cl)cc3)c(-c3ccncc3)c2C1', 'pIC50', 6.97),
  ('CN(C)C/C=C/C(=O)N1CCn2nc(-c3ccc(Cl)c(Cl)c3)c(-c3ccncc3)c2C1', 'pIC50', 6.37),
  ('C=CC(=O)N1CCn2nc(Nc3ccc(Cl)cc3F)c(-c3ccncc3)c2C1', 'pIC50', 5.92),
  ('C=CC(=O)N1Cc2c(-c3ccnc4[nH]cc(C)c34)c(-c3ccc(F)cc3)nn2C[C@H]1C', 'pIC50', 7.09);

The compound `C#CC(=O)N1CCn2nc(-c3ccc(F)cc3)c(-c3ccncc3)c2C1` showed pIC50 equal to 6.04

The compound `C=CC(=O)N1CCn2nc(-c3ccc(C(F)(F)F)cc3F)c(-c3ccncc3)c2C1` showed pIC50 equal to 7.56

The compound `C=CC(=O)N1CCn2nc(-c3ccc(SC(F)(F)F)cc3)c(-c3ccncc3)c2C1` showed pIC50 equal to 6.17

The compound `C=CC(=O)N1Cc2c(-c3ccncc3)c(-c3ccc(Cl)cc3)nn2C(C)(C)C1` showed pIC50 equal to 8.09

The compound `C=CC(=O)N1CCn2nc(-c3ccc(OC)cc3F)c(-c3ccncc3)c2C1` showed pIC50 equal to 7.28

The compound `Cc1cc(-c2nn3c(c2-c2ccncc2)CN(C(=O)/C=C/CN(C)C)CC3(C)C)ccc1Cl` showed pIC50 equal to 7.16

The compound `C=CC(=O)N1CCn2nc(-c3ccc4c(C)c[nH]c4c3)c(-c3ccncc3)c2C1` showed pIC50 equal to 7.48

The compound C=CC(=O)N1CCn2nc(-c3ccc(F)cc3)c(-c3ccnc4[nH]ccc34)c2C1C (single isomer, unassigned; isomer 1) showed pIC50 equal to 7.01

The compound `CN(C)C/C=C/C(=O)N1CCn2nc(-c3ccc4sccc4c3)c(-c3ccncc3)c2C1` showed pIC50 equal to 7.39

The compound `Cc1c[nH]c2nccc(-c3c(-c4cccc(Cl)c4)nn4c3CN(C(=O)/C=C/CN(C)C)CC4)c12` showed pIC50 equal to 7.25

The compound `CN(C)C/C=C/C(=O)N1CCn2nc(-c3ccc4[nH]ccc4c3)c(-c3ccncc3)c2C1` showed pIC50 equal to 6.00

The compound `CN(C)C/C=C/C(=O)N1Cc2c(-c3ccncc3)c(-c3ccc(F)cc3)nn2C(C)(C)C1` showed pIC50 equal to 6.95

The compound `O=C(/C=C/CF)N1CCn2nc(-c3ccc(F)cc3)c(-c3ccncc3)c2C1` showed pIC50 equal to 6.94

The compound `CC(C)(C)OC(=O)NC1(C#CC(=O)N2CCn3nc(-c4ccc(F)cc4)c(-c4ccncc4)c3C2)CC1` showed pIC50 equal to 6.01

The compound `CN(C)C/C=C/C(=O)N1CCn2nc(-c3ccc4cc[nH]c4c3)c(-c3ccncc3)c2C1` showed pIC50 equal to 7.16

The compound `C[C@@H]1Cn2nc(-c3cccc(C#N)c3)c(-c3ccncc3)c2CN1C(=O)/C=C/CN(C)C` showed pIC50 equal to 6.38

The compound `C=CC(=O)N1CCn2nc(-c3ccc(C(F)(F)F)cc3)c(-c3ccnc4[nH]c(C)cc34)c2C1` showed pIC50 equal to 6.30

---

experimental system: mutEGFR (D770_N771insSVD) (Homo sapiens, UniProt P00533, DUP768-770)
Construct: GST-EGFR #3 (SVD between D770 and N771); made in house; host or cells: Sf9 insect cells (baculovirus)
Sequence (P00533 with tags, fused parts or gaps DUP768-770): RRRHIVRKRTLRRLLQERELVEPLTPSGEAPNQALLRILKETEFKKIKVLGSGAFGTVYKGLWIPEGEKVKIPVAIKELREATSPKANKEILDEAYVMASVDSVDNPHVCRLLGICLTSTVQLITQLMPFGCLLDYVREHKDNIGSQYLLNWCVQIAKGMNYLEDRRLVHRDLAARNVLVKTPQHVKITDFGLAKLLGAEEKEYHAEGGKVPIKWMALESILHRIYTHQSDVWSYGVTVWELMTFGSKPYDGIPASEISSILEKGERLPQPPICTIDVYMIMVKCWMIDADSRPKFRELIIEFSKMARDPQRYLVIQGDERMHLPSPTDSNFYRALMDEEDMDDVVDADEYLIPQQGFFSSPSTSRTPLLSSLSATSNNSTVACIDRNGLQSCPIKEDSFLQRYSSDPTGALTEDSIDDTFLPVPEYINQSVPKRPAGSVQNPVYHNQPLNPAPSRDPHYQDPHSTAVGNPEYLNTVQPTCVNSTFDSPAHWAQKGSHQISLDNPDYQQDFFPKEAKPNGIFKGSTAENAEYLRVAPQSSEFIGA
experiment summary: Exon20-Mutant-EGFR (D770_N771insSVD) kinase assay (TR-FRET)
Format: biochemical
condition info: mutEGFR (D770_N771insSVD) kinase assay IC50, Table 2a; D770_N771insSVD; 2 mM ATP
metric name: IC50
Entry format: amount then unit.

INSERT INTO results (compound, observed_measurement) VALUES
  ('C=CC(=O)N1CCn2nc(-c3ccc(F)c4ccccc34)c(-c3ccncc3)c2C1', '0.528 nM');

The compound C=C(F)C(=O)N1Cc2c(-c3ccncc3)c(-c3ccc(Cl)cc3F)nn2CC1C (racemic) showed IC50 equal to 2.94 nM

The compound `Cc1c[nH]c2nccc(-c3c(-c4cccc(C(F)(F)F)c4)nn4c3CN(C(=O)/C=C/CN(C)C)CC4)c12` showed IC50 equal to 233 nM

The compound `C=CC(=O)N1CCn2nc(-c3ccc(C#N)cc3)c(-c3ccncc3)c2C1` showed IC50 equal to 3.16 nM

The compound `C=CC(=O)N1CCn2nc(-c3cccc(C)c3)c(-c3ccncc3)c2C1` showed IC50 equal to 0.841 nM

The compound `C=CC(=O)N1Cc2c(-c3ccncc3)c(-c3ccc(Cl)cc3)nn2C[C@@H]1C` showed IC50 equal to 0.369 nM

The compound `C=CC(=O)N1CCn2nc(-c3cccc(CO)c3)c(-c3ccncc3)c2C1` showed IC50 equal to 1.88 nM

The compound `CC(C)N(C)C/C=C/C(=O)N1CCn2nc(-c3ccc(F)cc3)c(-c3ccnc(NC(=O)C4CC4)c3)c2C1` showed IC50 equal to 0.326 nM

The compound `C=CC(=O)N1Cc2c(-c3ccnc4[nH]cc(C)c34)c(-c3cccc(C#N)c3)nn2C[C@@H]1C` showed IC50 equal to 249 nM

The compound C=CC(=O)N1CCn2nc(-c3ccc(F)cc3)c(-c3ccnc4[nH]ccc34)c2C1C (single isomer, unassigned; isomer 2) [Example 261] showed IC50 equal to 6.5 nM

---

Tested on: BA/F3 (insSVD) cells
experiment summary: Ba/F3-EGFR-insSVD cell survival assay (Cell Titer-Glo)
Format: cell-based
condition info: Mus musculus, BaF3, 48 h, Table 3a, cell survival, Cell Titer-Glo, with 10 ng/ml EGF, without IL-3
pIC50: −log10 of the molar value.
Criterion: pIC50 meeting or surpassing 7. Met: 1 (yes). Not met: 0 (no).

Worked examples follow.
INSERT INTO results (molecule, group_label) VALUES
  ('CN(C)C/C=C/C(=O)N1CCn2nc(-c3ccccc3Cl)c(-c3ccncc3)c2C1', '0 (no)'),
  ('CC1c2c(-c3ccnc4[nH]ccc34)c(-c3ccc(C(F)(F)F)cc3)nn2CCN1C(=O)/C=C/CN(C)C (single isomer, unassigned; isomer 2)', '0 (no)'),
  ('CN(C)CC#CC(=O)N1CCn2nc(-c3ccc(Cl)cc3F)c(-c3ccncc3)c2C1', '1 (yes)'),
  ('CC1Cn2nc(-c3ccc(Cl)cc3F)c(-c3ccncc3)c2CN1C(=O)/C=C/CN(C)C (racemic)', '1 (yes)'),
  ('C=CC(=O)N1CCn2nc(-c3ccc(C)cc3F)c(-c3ccncc3)c2C1', '1 (yes)'),
  ('CCOc1ccc(-c2nn3c(c2-c2ccncc2)CN(C(=O)/C=C/CN(C)C)CC3)cc1', '0 (no)');

Lab note: next molecule to report on.
## Input Is it the case that CN(C)C/C=C/C(=O)N1Cc2c(-c3ccncc3)c(-c3ccc(F)cc3)nn2C(CC(=O)N(C)C)C1 (racemic) has pIC50 reaching or exceeding 7?
## Output 0 (no)

---

experimental system: mutEGFR (D770_N771insSVD) (Homo sapiens, UniProt P00533, DUP768-770)
Construct: GST-EGFR #3 (SVD between D770 and N771); made in house; host or cells: Sf9 insect cells (baculovirus)
experiment summary: Exon20-Mutant-EGFR (D770_N771insSVD) kinase assay (TR-FRET)
Format: biochemical
condition info: mutEGFR (D770_N771insSVD) kinase assay IC50, Table 2a; D770_N771insSVD; 2 mM ATP
metric name: pIC50
// pIC50: -log10(molar conc.)

Example molecules with recorded pIC50:
INSERT INTO measurements (molecule, experimental_system, observed_measurement) VALUES
  ('CNC(=O)CC1CN(C(=O)/C=C/CN(C)C)Cc2c(-c3ccncc3)c(-c3ccc(F)cc3)nn21 (racemic) [Example 221]', 'mutEGFR (D770_N771insSVD) (Homo sapiens, UniProt P00533, DUP768-770)', 8.43),
  ('C=CC(=O)N1CCn2nc(-c3ccc(SC(F)(F)F)cc3)c(-c3ccncc3)c2C1 [Example 143]', 'mutEGFR (D770_N771insSVD) (Homo sapiens, UniProt P00533, DUP768-770)', 7.94),
  ('COc1ccc(-c2nn3c(c2-c2ccnc4[nH]cc(C)c24)CN(C(=O)/C=C/CN(C)C)CC3)cc1F [Example 59]', 'mutEGFR (D770_N771insSVD) (Homo sapiens, UniProt P00533, DUP768-770)', 6.09);

The molecule CNC/C=C/C(=O)N1CCn2nc(-c3ccc(F)cc3)c(-c3ccncc3)c2C1 [Example 80] showed pIC50 equal to 7.71

The molecule C=CC(=O)N1CCn2nc(-c3ccc(F)cc3)c(-c3ccnc4[nH]cc(C)c34)c2C1 [Example 173] showed pIC50 equal to 6.80

The molecule C=CC(=O)N1Cc2c(-c3ccncc3)c(-c3ccc(Cl)cc3)nn2C[C@H]1C [Example 123] showed pIC50 equal to 8.92

The molecule NC1(C#CC(=O)N2CCn3nc(-c4ccc(F)cc4)c(-c4ccncc4)c3C2)CC1 [Example 89] showed pIC50 equal to 8.22

The molecule CN(C)C/C=C/C(=O)N1Cc2c(-c3ccncc3)c(-c3ccc(F)cc3)nn2C(CC(N)=O)C1 (racemic) [Example 220] showed pIC50 equal to 8.38

The molecule C=CC(=O)N1CCn2nc(-c3ccc(OC)c(Cl)c3)c(-c3ccncc3)c2C1 [Example 38] showed pIC50 equal to 9.26

The molecule CN(C)C/C=C/C(=O)N1CCn2nc(-c3cc(Cl)ccc3F)c(-c3ccncc3)c2C1 [Example 149] showed pIC50 equal to 8.81
